target: μ-opioid receptor (Cavia porcellus, UniProt P97266); experiment: Electrically stimulated guinea-pig ileum; set-up: species or system guinea pigs
Sequence (P97266 whole entry, looked up): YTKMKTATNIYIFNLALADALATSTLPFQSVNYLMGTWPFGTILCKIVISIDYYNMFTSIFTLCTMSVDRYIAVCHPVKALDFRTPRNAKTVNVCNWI
PROPERTY MEASURED: IC50

Illustrative cases are given below, each with its answer.
| MOLECULE | PROPERTY MEASURED | RESULT |
| --- | --- | --- |
| Cc1cc(O)cc(C)c1C[C@H](N)C(=O)N1Cc2ccccc2C[C@H]1C(=O)N[C@@H](CC(=O)O)C(=O)N(C)c1ccccc1 | IC50 | > 10 µM |
| Cc1cc(O)cc(C)c1C[C@H](N)C(=O)N1Cc2ccccc2C[C@H]1C(=O)N[C@H](CC(=O)O)C(=O)N(C)c1ccccc1 | IC50 | > 10 µM |

Could you now consider this next molecule?
Would you mind telling me what IC50 value was observed for Cc1cc(O)cc(C)c1C[C@H](N)C(=O)N1Cc2ccccc2C[C@H]1C(=O)N[C@H](CC(=O)O)c1nc2ccccc2n1C [Compound 11, H-Dmt-Tic-NH-(R)CH(CH2-COOH)-Bid(N^1-Me)] ? > 10 µM
